Entry source: patent US20240207263A1

# TESTED_ON: ATM (Homo sapiens (Human))
# Sequence (Q13315 whole entry, looked up): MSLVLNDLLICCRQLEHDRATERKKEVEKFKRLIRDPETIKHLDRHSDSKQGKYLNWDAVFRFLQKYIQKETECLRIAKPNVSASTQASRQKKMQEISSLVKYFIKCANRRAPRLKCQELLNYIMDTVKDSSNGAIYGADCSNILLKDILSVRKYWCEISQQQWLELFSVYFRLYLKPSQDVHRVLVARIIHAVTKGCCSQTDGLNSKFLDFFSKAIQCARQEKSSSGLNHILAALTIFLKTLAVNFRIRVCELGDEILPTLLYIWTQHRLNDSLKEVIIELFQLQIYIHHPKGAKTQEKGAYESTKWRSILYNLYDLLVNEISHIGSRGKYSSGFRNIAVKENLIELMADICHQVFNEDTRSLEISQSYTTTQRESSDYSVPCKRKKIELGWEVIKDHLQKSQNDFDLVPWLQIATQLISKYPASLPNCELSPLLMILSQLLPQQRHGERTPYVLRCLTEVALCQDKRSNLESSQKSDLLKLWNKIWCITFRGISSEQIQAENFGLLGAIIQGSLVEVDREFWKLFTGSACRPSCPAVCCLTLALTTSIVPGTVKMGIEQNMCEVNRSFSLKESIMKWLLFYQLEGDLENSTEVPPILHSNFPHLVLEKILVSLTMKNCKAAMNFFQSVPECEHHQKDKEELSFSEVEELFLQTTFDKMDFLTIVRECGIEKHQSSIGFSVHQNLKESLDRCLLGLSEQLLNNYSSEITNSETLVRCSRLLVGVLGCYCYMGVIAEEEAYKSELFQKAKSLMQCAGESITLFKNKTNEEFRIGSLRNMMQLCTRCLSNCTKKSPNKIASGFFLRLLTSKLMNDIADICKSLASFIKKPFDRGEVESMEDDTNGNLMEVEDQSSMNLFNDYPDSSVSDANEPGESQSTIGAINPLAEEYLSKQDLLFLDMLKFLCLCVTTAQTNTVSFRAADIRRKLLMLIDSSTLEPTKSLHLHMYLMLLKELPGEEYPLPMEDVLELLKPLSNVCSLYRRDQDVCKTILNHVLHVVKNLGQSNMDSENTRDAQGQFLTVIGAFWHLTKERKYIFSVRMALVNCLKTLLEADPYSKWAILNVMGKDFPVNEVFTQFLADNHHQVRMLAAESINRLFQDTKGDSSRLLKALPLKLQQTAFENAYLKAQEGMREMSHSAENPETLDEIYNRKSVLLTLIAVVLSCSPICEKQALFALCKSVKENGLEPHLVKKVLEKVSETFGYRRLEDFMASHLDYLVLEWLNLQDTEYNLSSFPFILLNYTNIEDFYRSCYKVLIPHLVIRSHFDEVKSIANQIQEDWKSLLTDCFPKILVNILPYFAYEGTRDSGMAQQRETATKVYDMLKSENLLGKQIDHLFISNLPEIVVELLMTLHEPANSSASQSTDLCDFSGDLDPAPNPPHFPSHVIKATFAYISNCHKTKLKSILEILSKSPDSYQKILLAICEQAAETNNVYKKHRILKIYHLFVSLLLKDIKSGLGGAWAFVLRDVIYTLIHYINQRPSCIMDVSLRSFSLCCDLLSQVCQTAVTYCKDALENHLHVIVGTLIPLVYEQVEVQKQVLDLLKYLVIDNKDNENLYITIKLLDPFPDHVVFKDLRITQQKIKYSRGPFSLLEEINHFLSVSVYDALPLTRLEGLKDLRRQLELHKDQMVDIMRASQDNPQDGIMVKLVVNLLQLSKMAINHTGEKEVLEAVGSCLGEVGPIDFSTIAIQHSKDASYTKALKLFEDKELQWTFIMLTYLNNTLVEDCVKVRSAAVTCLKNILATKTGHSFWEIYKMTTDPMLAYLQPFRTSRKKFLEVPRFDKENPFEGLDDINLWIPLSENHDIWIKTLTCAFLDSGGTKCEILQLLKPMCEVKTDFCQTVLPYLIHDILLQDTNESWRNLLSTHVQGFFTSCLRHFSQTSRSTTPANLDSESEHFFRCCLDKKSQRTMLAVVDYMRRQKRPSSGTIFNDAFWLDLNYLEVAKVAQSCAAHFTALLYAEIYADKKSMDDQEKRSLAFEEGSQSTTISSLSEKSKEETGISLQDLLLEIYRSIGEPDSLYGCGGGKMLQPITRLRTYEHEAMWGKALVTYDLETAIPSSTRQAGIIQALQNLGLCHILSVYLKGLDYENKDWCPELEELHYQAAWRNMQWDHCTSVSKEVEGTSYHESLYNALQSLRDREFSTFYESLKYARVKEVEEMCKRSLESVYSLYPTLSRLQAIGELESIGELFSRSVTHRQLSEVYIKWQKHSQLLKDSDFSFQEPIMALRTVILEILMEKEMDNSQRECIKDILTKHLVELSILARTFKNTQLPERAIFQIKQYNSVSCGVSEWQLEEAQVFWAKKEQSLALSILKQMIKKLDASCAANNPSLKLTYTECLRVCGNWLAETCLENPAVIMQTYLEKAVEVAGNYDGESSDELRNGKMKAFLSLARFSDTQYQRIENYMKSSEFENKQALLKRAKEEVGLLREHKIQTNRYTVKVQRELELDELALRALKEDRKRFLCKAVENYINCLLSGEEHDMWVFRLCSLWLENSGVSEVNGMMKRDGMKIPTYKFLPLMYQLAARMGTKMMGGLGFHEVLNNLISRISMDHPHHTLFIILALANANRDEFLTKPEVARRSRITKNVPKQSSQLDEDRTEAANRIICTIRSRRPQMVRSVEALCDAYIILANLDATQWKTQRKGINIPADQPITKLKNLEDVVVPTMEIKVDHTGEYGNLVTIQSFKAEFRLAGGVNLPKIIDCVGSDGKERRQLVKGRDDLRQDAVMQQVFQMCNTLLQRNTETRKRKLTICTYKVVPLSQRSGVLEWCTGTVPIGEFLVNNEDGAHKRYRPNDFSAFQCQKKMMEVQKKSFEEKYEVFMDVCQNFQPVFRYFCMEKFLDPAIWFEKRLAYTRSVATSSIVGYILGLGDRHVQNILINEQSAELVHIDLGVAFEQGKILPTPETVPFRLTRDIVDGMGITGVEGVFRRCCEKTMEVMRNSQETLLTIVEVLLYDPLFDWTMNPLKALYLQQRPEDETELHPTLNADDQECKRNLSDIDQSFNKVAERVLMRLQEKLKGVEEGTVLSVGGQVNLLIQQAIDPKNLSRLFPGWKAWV
# PROCEDURE_DETAILS: biochemical
# Assay type: biochemical
# EXPERIMENTAL_CONDITIONS: read-out: ATM IC50
pIC50: −log10 of the molar value.
Categorize each record by its pIC50 using lower bin (below 7), middle bin (7 to below 8), upper bin (8 or more)

Solved entries:
{"MOLECULE": "CC(C)n1c(=O)n(C)c2nnc3ccc(-c4ccc([C@H](C)OCCN5CCC(C)(C)CC5)nc4)cc3c21 [Example 72]", "GROUP_LABEL": "middle bin"}
{"MOLECULE": "COC[C@@H]1CCN(CCO[C@H](C)c2ccc(-c3ccc4nnc5c(c4c3)n(C3CCOCC3)c(=O)n5C)cn2)C1 [Example 119]", "GROUP_LABEL": "upper bin"}
{"MOLECULE": "COCCOCc1ccc(-c2ccc3nnc4c(c3c2)n(C(C)C)c(=O)n4C)cn1 [Example 6]", "GROUP_LABEL": "lower bin"}

Returns: class label. Input: CC(C)n1c(=O)n(C)c2nnc3ccc(-c4ccc(COC5(CN6CC7CC7C6)CC5)nc4)cc3c21 (centres unmarked) [Example 23]
lower bin

Returns: class label. Input: CC(C)n1c(=O)n(C)c2nnc3ccc(-c4ccc([C@@H](C)OCCN5CCC(F)CC5)nc4)cc3c21 [Example 69]
upper bin

Returns: class label. Input: CO[C@H]1C[C@H](n2c(=O)n(C)c3nnc4ccc(-c5ccc(COCCN6CC7CC7C6)nc5)cc4c32)C1 (some centres unmarked) [Example 169]
middle bin

Returns: class label. Input: CC(C)O[C@@H]1CCN(CCO[C@H](C)c2ccc(-c3ccc4nnc5c(c4c3)n(C(C)C)c(=O)n5C)cn2)C1 [Example 93]
upper bin

Returns: class label. Input: Cn1c(=O)n([C@H]2CCCOC2)c2c3cc(-c4ccc(COCCN5CCC(F)CC5)nc4)ccc3nnc21 [Example 182]
middle bin

Returns: class label. Input: CC(C)n1c(=O)n(C)c2nnc3ccc(-c4ccc([C@@H](C)OCCN5CCC6(CCC6)C5)nc4)cc3c21 [Example 89]
upper bin
